- Run Description: in vitro
- Assay Context: human, TOX HELA CC50 (μM)
Measurement Kind: CC50 at 3 days (µM)
Answers are plain numbers, in µM.

Compound	Measurement Kind	Unit Name	Quantitative Readout
C[C@@H]1c2ccccc2CCN1C(=O)c1cc(C2CC2)n2nc(-c3ccc(N4CC[C@H](OC(N)=O)C4)cc3F)cc2n1	CC50 at 3 days	µM	47.3

Take each entry in turn and give its CC50 at 3 days.
1. C[C@@H]1c2ccccc2CCN1C(=O)c1cc(-c2ccccc2)n2nc(-c3ccc(N4CC[C@H](C(N)=O)C4)cc3F)cc2n1
2. CO[C@H]1CN(c2ccc(-c3cc4nc(C(=O)N5CCc6ccccc6[C@H]5C)cc(C5CC5)n4n3)c(F)c2)C[C@@H]1O (stereo in doubt)
3. C[C@@H]1c2ccccc2CCN1C(=O)c1cc(C2CC2)n2nc(-c3ccc(N4CCCC(C(N)=O)C4)cc3F)cc2n1 (stereo partly shown)
4. C[C@@H]1c2ccccc2CCN1C(=O)c1cc(-c2ccc(F)cc2)n2nc(-c3ccc(N4CC[C@H](C(N)=O)C4)cc3F)cc2n1

A.
1. 58.9
2. 22.5
3. 33.2
4. 41.3

* * *

- Test system: rgRSV224 virus
- Run Description: Antiviral activity: rgRSV224 (GFP) replication in HeLa cells
- Assay type: cell-based, respiratory syncytial virus (RSV)
- Assay Context: human respiratory syncytial virus, HeLa, 72 h, read-out: RSV HELA EC50 (μM), rgRSV224 virus (MOI=1), HeLa cells, GFP expression three days post-virus exposure
# label = 1 if EC50 < 0.07 µM else 0

Compound	Discrete Label
Cc1cc(N2CC[C@H](C(N)=O)C2)cc(F)c1-c1cc2nc(C(=O)N3CCc4ccccc4[C@H]3C)cc(C3CC3)n2n1	0
COCCOc1cc(N2CC[C@H](C(N)=O)C2)nc(F)c1-c1cc2nc(C(=O)N3CCc4ccccc4[C@H]3C)cc(C3CC3)n2n1	0
C[C@@H]1c2ccccc2CCN1C(=O)c1cc(C2CC2)n2nc(-c3ccc(N4C[C@H](O)[C@@H](O)C4)cc3F)cc2n1	1
CNC(=O)[C@H]1CCN(c2ccc(-c3cc4nc(C(=O)N5CCc6ccccc6[C@H]5C)cc(C5CC5)n4n3)c(F)c2)C1	1

Q. EC50 under 0.07 µM? Item: C[C@@H]1c2cc(F)ccc2CCN1C(=O)c1cc(C2CC2)n2nc(-c3ccc(N4CC[C@H](C(N)=O)C4)cc3F)cc2n1 (single isomer, unassigned)
A. 1

Q. Is EC50 of "COc1cc(N2CC[C@H](C(N)=O)C2)nc(F)c1-c1cc2nc(C(=O)N3CCc4ccccc4[C@H]3C)cc(C3CC3)n2n1" strictly below 0.07 µM?
A. 0

Q. Below 0.07 µM on EC50? Entry "C[C@@H]1c2ccccc2CCN1C(=O)c1cc(C2CC2)n2nc(-c3ccc(N4CC[C@@H](NS(C)(=O)=O)C4)cc3F)cc2n1"
A. 1

Q. Lab note: EC50 threshold 0.07 µM. Does this compound come in strictly under it? "C[C@@H]1c2ccccc2CCN1C(=O)c1cc(C2CC2)n2nc(-c3ccc(N4CC[C@H](NS(C)(=O)=O)C4)cc3F)cc2n1"
A. 1

Q. API: query returns whether the compound falls strictly under 0.07 µM in EC50. Query: C[C@@H]1c2ccsc2CCN1C(=O)c1cc(C2CC2)n2nc(-c3ccc(N4CC[C@@H](CC(N)=O)C4)cc3F)cc2n1 (single isomer, unassigned)
A. 1

Q. Is EC50 of "CNC(=O)CC1CN(c2ccc(-c3cc4nc(C(=O)N5CCc6ccccc6[C@H]5C)cc(C5CC5)n4n3)c(F)c2)C1" strictly below 0.07 µM?
A. 1

Q. # TODO verify EC50 < 0.07 µM strictly for this compound: C[C@@H]1c2ccccc2CCN1C(=O)c1cc(C2CC2)n2nc(-c3ccc(N4CCC(C#N)C4)cc3F)cc2n1 (stereo partly shown)
A. 0

# credit: patent US11339165B2
